Assay: Binding affinity to beta cyclodextrin
Returns: string. Value is rule met if measured log Ks is below 3, and rule not met if it is greater than or equal to it.

**Q:** For this compound, is log Ks lower than 3? Ic1ccc(I)cc1
**A:** rule not met

**Q:** Would you kindly repeat that for Nc1ccc(S(=O)(=O)Nc2ccnn2-c2ccccc2)cc1 ?
**A:** rule met

**Q:** Would you kindly repeat that for OCCCCCO ?
**A:** rule met

**Q:** Would you kindly repeat that for c1ccc2c(c1)cnc1ccccc12 ?
**A:** rule met

**Q:** Would you kindly repeat that for CC(=O)S[C@@H]1CC2=CC(=O)CC[C@]2(C)[C@H]2CC[C@@]3(C)[C@@H](CC[C@@]34CCC(=O)O4)[C@H]12 ?
**A:** rule not met

**Q:** Would you kindly repeat that for Brc1ccccc1 ?
**A:** rule met

**Q:** Would you kindly repeat that for CC(C)CO ?
**A:** rule met

**Q:** Would you kindly repeat that for O=C(O)CC12CC3CC(CC(C3)C1)C2 ?
**A:** rule not met

**Q:** Would you kindly repeat that for OC1CCCCCCC1 ?
**A:** rule not met

**Q:** Would you kindly repeat that for Oc1ccc(F)cc1 ?
**A:** rule met

**Q:** Would you kindly repeat that for CC(C)Cc1cccc(O)c1 ?
**A:** rule not met

**Q:** Would you kindly repeat that for CCOc1cccc(O)c1 [1-hydroxy-3-ethoxybenzene] ?
**A:** rule met

====

Assay: Binding affinity to beta cyclodextrin
Readout Kind: log Ks
Please reply with the value in numeric form only.

**Q:** # query: log Ks of entry CCC1(CC)C(=O)NC(=O)NC1=O
**A:** 1.78

**Q:** Would you kindly repeat that for C#Cc1ccccc1 ?
**A:** 2.36

**Q:** Would you kindly repeat that for Nc1ccc([N+](=O)[O-])cc1 ?
**A:** 2.48

**Q:** Would you kindly repeat that for CC(C)(C)CO ?
**A:** 2.71

**Q:** Would you kindly repeat that for CCC(C)(O)CC ?
**A:** 2.15

**Q:** Would you kindly repeat that for CCNCC ?
**A:** 1.36

**Q:** Would you kindly repeat that for CC(=O)Oc1cccc(F)c1 ?
**A:** 1.91

**Q:** Would you kindly repeat that for C[C@@H]1C[C@H]2[C@@H]3CCC4=CC(=O)C=C[C@]4(C)[C@@]3(F)[C@@H](O)C[C@]2(C)[C@@]1(O)C(=O)CO ?
**A:** 3.65

**Q:** Would you kindly repeat that for CC(C)CCO ?
**A:** 2.25

**Q:** Would you kindly repeat that for O=C(O)c1ccccc1 ?
**A:** 2.12

**Q:** Would you kindly repeat that for c1ccc(Cn2ccnc2)cc1 ?
**A:** 2.61

**Q:** Would you kindly repeat that for O=C(O)c1ccc([N+](=O)[O-])cc1 ?
**A:** 2.34

**Q:** Would you kindly repeat that for O=[N+]([O-])c1ccc(Cl)cc1 ?
**A:** 2.15

**Q:** Would you kindly repeat that for C[C@H](CCC(=O)O)[C@H]1CC[C@H]2[C@@H]3C(=O)C[C@@H]4CC(=O)CC[C@]4(C)[C@H]3CC(=O)[C@]12C [DEHYDROCHOLIC ACID] ?
**A:** 3.38

**Q:** Would you kindly repeat that for CN1C(=O)CN=C(c2ccccc2)c2cc([N+](=O)[O-])ccc21 ?
**A:** 1.73

**Q:** Would you kindly repeat that for CCCC(C)C1(CC)C(=O)NC(=S)NC1=O (stereo unspecified) ?
**A:** 3.28

**Q:** Would you kindly repeat that for CCC(C)c1cccc(O)c1 (stereo unspecified) ?
**A:** 4.06

**Q:** Would you kindly repeat that for CCC(=O)c1ccc(O)cc1 ?
**A:** 2.63

**Q:** Would you kindly repeat that for C[C@H](CCC(=O)O)[C@H]1CC[C@H]2[C@@H]3[C@@H](O)C[C@@H]4C[C@H](O)CC[C@]4(C)[C@H]3CC[C@]12C ?
**A:** 4.51

**Q:** Would you kindly repeat that for CCCCCCCCO ?
**A:** 3.17

**Q:** Would you kindly repeat that for C1CCOC1 [TETRAHYDROFURAN] ?
**A:** 1.47

**Q:** Would you kindly repeat that for CCCCC[C@H](O)/C=C/[C@H]1[C@H](O)CC(=O)[C@@H]1C/C=C\CCCC(=O)O ?
**A:** 3.09

**Q:** Would you kindly repeat that for C[C@H](CCC(=O)O)[C@H]1CC[C@H]2[C@@H]3[C@H](O)C[C@@H]4C[C@H](O)CC[C@]4(C)[C@H]3CC[C@]12C ?
**A:** 4.36

**Q:** Would you kindly repeat that for CC(C)c1cccc(O)c1 ?
**A:** 3.44

**Q:** Would you kindly repeat that for CC(=O)Oc1cccc(Cl)c1 ?
**A:** 2.44

**Q:** Would you kindly repeat that for O=C(O)Cc1ccccc1 ?
**A:** 2.1

**Q:** Would you kindly repeat that for NC(=O)CCC/N=C(\c1ccc(Cl)cc1)c1cc(F)ccc1O [PROGABIDE] ?
**A:** 2.53

**Q:** Would you kindly repeat that for OCCCO ?
**A:** 0.67

**Q:** Would you kindly repeat that for C[C@]12C=CC(=O)C=C1CC[C@@H]1[C@@H]2[C@@H](O)C[C@@]2(C)[C@H]1CC[C@]2(O)C(=O)CO ?
**A:** 3.56

**Q:** Would you kindly repeat that for COc1cc(NS(=O)(=O)c2ccc(N)cc2)ncn1 ?
**A:** 2.48

**Q:** Would you kindly repeat that for c1ccc2c(c1)sc1ccccc12 ?
**A:** 3.48

**Q:** Would you kindly repeat that for CCc1cccc(O)c1 ?
**A:** 2.6

**Q:** Would you kindly repeat that for OCCCCO ?
**A:** 0.64

**Q:** Would you kindly repeat that for CCC1(CCC(C)C)C(=O)NC(=O)NC1=O ?
**A:** 3.07

**Q:** Would you kindly repeat that for C(=C\c1ccccc1)/CN1CCN(C(c2ccccc2)c2ccccc2)CC1 ?
**A:** 3.64

**Q:** Would you kindly repeat that for C=CCC1(CC=C)C(=O)NC(=O)NC1=O ?
**A:** 1.98

**Q:** Would you kindly repeat that for O=C(O)c1ccccc1Nc1ccccc1 ?
**A:** 2.89

**Q:** Would you kindly repeat that for Oc1cc(Cl)cc(Cl)c1 ?
**A:** 2.07

**Q:** Would you kindly repeat that for Oc1ccccc1 ?
**A:** 1.98

**Q:** Would you kindly repeat that for CC(=O)Oc1cccc(C#N)c1 ?
**A:** 1.49

**Q:** Would you kindly repeat that for CC(=O)c1ccc(S(=O)(=O)NC(=O)NC2CCCCC2)cc1 [ACETOHEXAMIDE] ?
**A:** 2.94

**Q:** Would you kindly repeat that for Cc1cc(NS(=O)(=O)c2ccc(N)cc2)nc(C)n1 ?
**A:** 2.1

**Q:** Would you kindly repeat that for CCCCNC(=O)NS(=O)(=O)c1ccc(N)cc1 [CARBUTAMIDE] ?
**A:** 2.29

**Q:** Would you kindly repeat that for Cc1ccnc(NS(=O)(=O)c2ccc(N)cc2)n1 ?
**A:** 1.97

**Q:** Would you kindly repeat that for CCCC(C)C1(CC)C(=O)NC(=O)NC1=O (stereo unspecified) ?
**A:** 3.01

**Q:** Would you kindly repeat that for OCc1ccc(O)cc1 [PARAHYDROXYBENZYL ALCOHOL] ?
**A:** 2.16
